Quick record: IC50, UniProtKB P56817.
Reply with just the number (in µM).

Worked cases, IC50 given:
1. Nc1ccc2c(c1)c(OCc1cccc3ccccc13)nn2Cc1ccc(Cl)cc1 : 5.8
2. Clc1cccc(Cn2nc(OCc3ccccc3)c3cc(NCCCN4CCCCC4)ccc32)c1Cl : 3.2
3. Clc1cccc(COc2nn(Cc3cccc4ccccc34)c3ccc(NCCCN4CCCCC4)cc23)c1Cl : 2.7
4. Clc1ccc(Cn2nc(OCc3ccc4ccccc4c3)c3cc(NCCCN4CCCCC4)ccc32)cc1Cl : 1.9

Now for a further molecule.
Prompt: Give reported IC50 for "c1ccc(Cn2nc(OCc3cccc4ccccc34)c3cc(NCCCN4CCCCC4)ccc32)cc1" (UniProtKB P56817)
Response: 2.7

###

pIC50 for assorted compounds
biological target: BACE1 (Homo sapiens, UniProt P56817)
Sequence (P56817 46-501): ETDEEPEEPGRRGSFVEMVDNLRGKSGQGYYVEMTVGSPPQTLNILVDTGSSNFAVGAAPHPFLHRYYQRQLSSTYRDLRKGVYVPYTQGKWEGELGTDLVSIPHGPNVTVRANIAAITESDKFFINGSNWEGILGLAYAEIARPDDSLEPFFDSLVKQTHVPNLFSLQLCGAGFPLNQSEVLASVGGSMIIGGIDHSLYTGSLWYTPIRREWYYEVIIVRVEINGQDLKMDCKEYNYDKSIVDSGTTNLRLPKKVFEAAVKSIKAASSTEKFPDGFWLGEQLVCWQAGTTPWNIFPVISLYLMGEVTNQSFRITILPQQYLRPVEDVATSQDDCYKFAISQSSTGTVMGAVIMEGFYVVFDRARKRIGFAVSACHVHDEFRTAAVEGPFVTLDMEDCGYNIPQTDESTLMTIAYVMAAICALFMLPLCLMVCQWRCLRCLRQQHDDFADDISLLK
pIC50: −log10 of the molar value.

Recorded results for 2 compounds are shown here.
1. O=C(Nc1ccc2c(c1)c(OCc1cccc3ccccc13)nn2Cc1ccc(Cl)c(Cl)c1)N(c1ccccc1)c1ccccc1 : < 5.00
2. Nc1ccc2c(c1)c(OCc1ccccc1)nn2Cc1cccc(Cl)c1Cl : < 5.00

Prompt: Give measured pIC50 for "CN(C(=O)Nc1ccc2c(c1)c(OCc1cccc3ccccc13)nn2Cc1ccc(Cl)cc1)c1ccccc1" (BACE1 (Homo sapiens, UniProt P56817)).
Response: < 5.00

###

// values below are IC50; system is BACE1 (Homo sapiens)

Use these answered entries as a reference point.
1) Nc1ccc2c(c1)c(OCc1cccc3ccccc13)nn2Cc1ccccc1 : > 10 µM
2) Nc1ccc2c(c1)c(OCc1ccccc1)nn2Cc1ccccc1 : > 10 µM

Let's switch to this molecule now.
Prompt: Consider the molecule "O=C(Nc1ccc2c(c1)c(OCc1cccc(Cl)c1Cl)nn2Cc1cccc2ccccc12)N1CCCC1" tested on BACE1 (Homo sapiens); state its IC50.
Response: > 10 µM
